Entry source: the C3SDB collision cross section collection

settings: [M+H]+; instrument: TW; calibrated with polyalanine and drug standards
endpoint_label: collision cross section (N2)
Provide a numeric answer, followed by its unit.

Before answering, review these 2 worked examples.
{"given_smiles": "CC(C)C[C@H](NC(=O)[C@H](C)N)C(=O)O", "result": "152.5 Å²"}
{"given_smiles": "Cc1c(NC(C)C)c(=O)n(-c2ccccc2)n1C", "result": "156.5 Å²"}

--- query ---
// query I'd like to know its collision cross section (N2). The compound in question is COc1ccc(/C=C/c2cc(O)cc(O)c2)cc1
// result 157.3 Å²

###

Reported collision cross section (N2) values follow for various compounds
conditions: [M+H]+; instrument: TW; calibrated with polyalanine and drug standards
Please give the number followed by its unit.

Solved cases (10 shown):
{"compound": "COc1ccc2oc(-c3ccccc3)c(OC)c(=O)c2c1", "result": "159.9 Å²"}
{"compound": "COc1c2ccoc2cc2oc(C)cc(=O)c12", "result": "139.1 Å²"}
{"compound": "CCOc1ccc2c(c1)C(C)=CC(C)(C)N2", "result": "152.6 Å²"}
{"compound": "CCCCC(=O)O[C@]1(C(=O)CO)CC[C@H]2[C@@H]3CCC4=CC(=O)CC[C@]4(C)[C@H]3[C@@H](O)C[C@@]21C [HYDROCORTISONE VALERATE]", "result": "212.5 Å²"}
{"compound": "C#C[C@]1(O)CC[C@H]2[C@@H]3CCC4=CC(=O)CC[C@@H]4[C@H]3CC[C@@]21CC", "result": "178.6 Å²"}
{"compound": "CC(C(=O)O)c1ccc(N2Cc3ccccc3C2=O)cc1 (centres undefined)", "result": "166.6 Å²"}
{"compound": "Cc1cc(C)nc(NS(=O)(=O)c2ccc(N)cc2)n1", "result": "161.7 Å²"}
{"compound": "C#C[C@]1(OC(C)=O)CC[C@H]2[C@@H]3CCC4=C/C(=N/O)CC[C@@H]4[C@H]3CC[C@@]21CC [NORGESTIMATE]", "result": "197.6 Å²"}
{"compound": "CC(=O)O[C@@H]1CC2C(C)(CC[C@H](O)C2(C)C)C2CC[C@]3(C)C(=CC(=O)O[C@H]3c3ccoc3)C21C (stereo partly drawn) [3beta-HYDROXYDEOXODIHYDRODEOXYGEDUNIN]", "result": "207.1 Å²"}
{"compound": "O=[N+]([O-])c1cc([As](=O)(O)O)ccc1O", "result": "145.5 Å²"}

// query Name the recorded collision cross section (N2) for Nc1cc(-c2ccncc2)c[nH]c1=O .
// result 139 Å²

// query Return reported collision cross section (N2); argument: CCCCC1C(=O)N(c2ccccc2)N(c2ccccc2)C1=O
// result 172.4 Å²

// query Could you share which collision cross section (N2) value was measured for O=C(CCCN1CCN(c2ccccn2)CC1)c1ccc(F)cc1 ?
// result 180 Å²

// query Find the recorded collision cross section (N2) belonging to COP(=O)(OC)OC=C(Cl)Cl and report it.
// result 138.7 Å²

// query collision cross section (N2) for N[C@@H](CCC(=O)N[C@@H](CS)C(=O)NCC(=O)O)C(=O)O ?
// result 165.7 Å²

// query # lookup: collision cross section (N2) of Cc1cccc(C)c1NC1=NCCCS1
// result 147.8 Å²

// query Suppose we examine the compound COc1ccc2c(c1)OCC(Cc1ccc(O)c(OC)c1)C2=O (centres undefined) ; what collision cross section (N2) value has been reported?
// result 171.2 Å²

// query What collision cross section (N2) value was documented for this compound, Cc1[nH]c(C)c(Cl)c(=O)c1Cl ?
// result 131.2 Å²

// query Looking for the measured collision cross section (N2) of OC[C@H]1O[C@@H](O[C@@H]2[C@@H](CO)O[C@](O)(CO)[C@H]2O)[C@H](O)[C@@H](O)[C@H]1O , can you help?
// result 169.2 Å²
